Source of measurements: patent US20180099931A1

# target or system: F508delCFTR (Homo sapiens, UniProt P13569, DEL508-508)
# Construct: expressed in transfected cells; host or cells: CFBE41o- human lung-derived epithelial cells (CFBE4lo-F508delCFTR-HRP), doxycycline-inducible
# Sequence (P13569 with tags, fused parts or gaps DEL508-508): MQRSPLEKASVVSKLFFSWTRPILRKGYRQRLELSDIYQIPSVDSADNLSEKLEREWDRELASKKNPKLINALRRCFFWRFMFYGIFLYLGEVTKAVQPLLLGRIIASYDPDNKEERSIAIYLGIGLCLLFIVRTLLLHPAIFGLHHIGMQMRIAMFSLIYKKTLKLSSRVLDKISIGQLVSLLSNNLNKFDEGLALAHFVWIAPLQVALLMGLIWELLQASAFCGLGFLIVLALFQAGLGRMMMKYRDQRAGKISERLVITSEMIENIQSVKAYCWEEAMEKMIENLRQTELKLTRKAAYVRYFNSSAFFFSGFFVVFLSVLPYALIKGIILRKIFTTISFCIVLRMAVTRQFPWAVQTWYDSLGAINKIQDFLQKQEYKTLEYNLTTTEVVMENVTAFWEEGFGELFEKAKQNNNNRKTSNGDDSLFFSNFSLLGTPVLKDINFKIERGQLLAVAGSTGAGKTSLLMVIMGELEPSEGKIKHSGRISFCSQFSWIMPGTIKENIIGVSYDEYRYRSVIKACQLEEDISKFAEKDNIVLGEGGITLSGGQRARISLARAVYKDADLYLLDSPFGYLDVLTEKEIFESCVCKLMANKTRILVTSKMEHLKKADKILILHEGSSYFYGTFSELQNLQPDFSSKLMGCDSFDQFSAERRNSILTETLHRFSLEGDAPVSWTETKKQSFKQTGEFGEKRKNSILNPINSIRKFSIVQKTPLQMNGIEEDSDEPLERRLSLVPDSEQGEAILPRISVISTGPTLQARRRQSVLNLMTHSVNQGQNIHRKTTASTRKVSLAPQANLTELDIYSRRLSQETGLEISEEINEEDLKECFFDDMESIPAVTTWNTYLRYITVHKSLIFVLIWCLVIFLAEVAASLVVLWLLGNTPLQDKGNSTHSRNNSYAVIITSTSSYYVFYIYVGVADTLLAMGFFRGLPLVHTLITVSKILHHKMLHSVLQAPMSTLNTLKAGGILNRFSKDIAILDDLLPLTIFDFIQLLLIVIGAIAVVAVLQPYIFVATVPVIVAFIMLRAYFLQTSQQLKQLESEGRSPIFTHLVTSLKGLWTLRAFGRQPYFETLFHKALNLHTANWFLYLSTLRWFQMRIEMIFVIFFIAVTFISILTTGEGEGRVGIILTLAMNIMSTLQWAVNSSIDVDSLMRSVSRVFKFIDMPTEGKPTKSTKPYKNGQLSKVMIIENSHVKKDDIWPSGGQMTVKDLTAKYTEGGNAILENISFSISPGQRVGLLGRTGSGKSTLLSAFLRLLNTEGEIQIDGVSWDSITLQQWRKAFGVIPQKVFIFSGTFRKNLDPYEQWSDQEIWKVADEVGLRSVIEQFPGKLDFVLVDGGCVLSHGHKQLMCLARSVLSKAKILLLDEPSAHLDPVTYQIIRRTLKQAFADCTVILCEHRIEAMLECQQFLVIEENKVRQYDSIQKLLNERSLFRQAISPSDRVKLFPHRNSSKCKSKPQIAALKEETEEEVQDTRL
# method description: Cell Surface Expression-Horse Radish Peroxidase (CSE-HRP) Assay;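 for Maximum % activity (with co-corrector): co-corrector and positive control are both the same reference corrector at 2 µM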
# Type: cell-based
# condition: with co-corrector (2 μM); maximum at any tested concentration, normalized to on-plate positive control
metric name: Maximum % activity (with co-corrector)

# molecule, target or system, Maximum % activity (with co-corrector)
measured = [
    ("CC(C)(C)[C@H]1[C@H](NCc2cc3c(cc2Cl)OCO3)[C@H](c2ccccc2)N(C(=O)C2CCCCC2)[C@@H]1C(=O)O [III-142]", "F508delCFTR (Homo sapiens, UniProt P13569, DEL508-508)", "++ (≥150 and <350)"),
    ("CC(C)(C)[C@H]1[C@H](NCc2ccc(Cl)c(Cl)c2)[C@H](c2ccccc2)N(C(=O)C2CCCCC2)[C@@H]1C(=O)O [III-130]", "F508delCFTR (Homo sapiens, UniProt P13569, DEL508-508)", "++ (≥150 and <350)"),
    ("COc1nc(C(C)(C)C)ccc1CN[C@H]1[C@H](C(C)(C)C)[C@@H](C(=O)O)N(C(=O)[C@H](C)c2ccccc2)[C@H]1c1ccccc1 [Example I-182]", "F508delCFTR (Homo sapiens, UniProt P13569, DEL508-508)", "+++ (≥350)"),
    ("COc1ccc(C(C)(C)C)cc1CN[C@H]1[C@H](C(C)(C)C)[C@@H](C(=O)O)N(C(=O)C2CCCCC2)[C@H]1c1ccccc1C(C)C [Example I-185]", "F508delCFTR (Homo sapiens, UniProt P13569, DEL508-508)", "+++ (≥350)"),
    ("COc1ncc(C2CCC2)cc1CN[C@H]1[C@H](C(C)(C)C)[C@@H](C(=O)O)N(C(=O)C2CCCCC2)[C@H]1c1ccccc1C(C)C [Example 117]", "F508delCFTR (Homo sapiens, UniProt P13569, DEL508-508)", "+++ (≥350)"),
]

Here is the next item to consider.
What measured Maximum % activity (with co-corrector) goes with Cc1cc(C(F)(F)F)cc(N[C@@H]2[C@@H](C(C)(C)C)[C@H](C(=O)O)N(C(=O)C3CCC4(CC3)CC4)[C@@H]2c2ccccc2)n1 (racemic) [Example I-37] ?
++ (≥150 and <350)

----------
# target or system: F508delCFTR (Homo sapiens, UniProt P13569, DEL508-508)
# Construct: expressed in transfected cells; host or cells: CFBE41o- human lung-derived epithelial cells (CFBE4lo-F508delCFTR-HRP), doxycycline-inducible
# method description: Cell Surface Expression-Horse Radish Peroxidase (CSE-HRP) Assay
# Assay type: cell-based
# condition: test compound without co-corrector; read-out: EC50 (without co-corrector)
Items are presented alongside their recorded EC50.

# compound, target or system, EC50
data = [
    ("COc1ncc(C2CCC2)cc1CN[C@@H]1[C@@H](C(C)(C)C)[C@H](C(=O)O)N(C(=O)[C@@H]2CCCO2)[C@@H]1c1ccccc1Cl", "F508delCFTR (Homo sapiens, UniProt P13569, DEL508-508)", "1 to 10 µM"),
    ("COc1ccc(C(C)(C)C)cc1CN[C@H]1[C@H](C(C)(C)C)[C@@H](C(=O)O)N(C(=O)[C@@H]2[C@@H](C(F)(F)F)[C@@H]3CC[C@H]2O3)[C@H]1c1cccnc1N(C)C (relative stereo)", "F508delCFTR (Homo sapiens, UniProt P13569, DEL508-508)", "< 1 µM"),
    ("COc1nc(C(C)(C)C)ccc1CN[C@H]1[C@H](C(C)(C)C)[C@@H](C(=O)O)N(C(=O)[C@H]2CCCCO2)[C@H]1c1ccccc1", "F508delCFTR (Homo sapiens, UniProt P13569, DEL508-508)", "1 to 10 µM"),
]

What measured EC50 goes with `COc1ncc(C(F)(F)F)cc1CN[C@H]1[C@H](C(C)(C)C)[C@@H](C(=O)O)N(C(=O)C2CCCCC2)[C@H]1c1cccc2c1OC(C)(C)C2` ?
< 1 µM

What measured EC50 goes with COc1ccc(C(C)(C)C)cc1CN[C@H]1[C@H](C(C)(C)C)[C@@H](C(=O)O)N(C(=O)C2CC23CCOCC3)[C@H]1c1ccccc1 (stereo partly drawn) ?
1 to 10 µM

What measured EC50 goes with COc1cccc(CN[C@@H]2[C@@H](C(C)(C)C)[C@H](C(=O)O)N(C(=O)C3CCCCC3)[C@@H]2c2ccccc2)n1 (racemic) ?
1 to 10 µM
